Data provenance: ChEMBL document CHEMBL4196003

- test_system: Coagulation factor VII/tissue factor (Homo sapiens)
- Sequence (P08709 61-212 limits assumed): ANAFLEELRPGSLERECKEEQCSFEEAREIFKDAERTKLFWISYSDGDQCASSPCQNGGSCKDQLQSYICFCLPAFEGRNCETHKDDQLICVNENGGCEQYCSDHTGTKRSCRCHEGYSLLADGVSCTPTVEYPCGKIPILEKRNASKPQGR
- Sequence (P08709 213-466 limits assumed): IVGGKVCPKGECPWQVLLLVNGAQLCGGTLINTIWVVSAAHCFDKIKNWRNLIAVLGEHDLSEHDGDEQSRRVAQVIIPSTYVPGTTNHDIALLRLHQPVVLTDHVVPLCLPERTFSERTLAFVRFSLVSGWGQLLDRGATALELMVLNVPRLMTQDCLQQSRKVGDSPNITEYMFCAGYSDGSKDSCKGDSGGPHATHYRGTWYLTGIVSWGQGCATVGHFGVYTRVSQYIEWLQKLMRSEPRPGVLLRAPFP
- Sequence (P13726 33-295 partner limits assumed): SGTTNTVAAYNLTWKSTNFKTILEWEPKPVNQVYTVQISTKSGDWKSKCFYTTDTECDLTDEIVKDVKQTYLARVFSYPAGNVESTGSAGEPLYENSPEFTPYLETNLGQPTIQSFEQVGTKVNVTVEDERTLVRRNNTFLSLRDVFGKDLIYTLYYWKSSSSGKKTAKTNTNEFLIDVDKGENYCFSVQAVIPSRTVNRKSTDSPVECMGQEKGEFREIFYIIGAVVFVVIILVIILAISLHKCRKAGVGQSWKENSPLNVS
- Assay type: protein-complex assay
pIC50: −log10 of the molar value.

{"columns": ["smiles_entry", "test_system", "pIC50"],
 "data": [
  ["N=C(N)NCCC[C@H](NC(=O)[C@H](Cc1cccnc1)NC(=O)[C@H](Cc1ccccc1)NS(=O)(=O)c1ccccc1)C(=O)c1nccs1", "Coagulation factor VII/tissue factor (Homo sapiens)", 6.70]
]}

====

- test_system: Coagulation factor X (Homo sapiens)
- Sequence (P00742 41-179 limits assumed): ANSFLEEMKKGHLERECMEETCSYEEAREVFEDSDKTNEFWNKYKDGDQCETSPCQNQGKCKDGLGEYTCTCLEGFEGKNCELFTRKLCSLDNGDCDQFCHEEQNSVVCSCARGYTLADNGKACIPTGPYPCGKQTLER
- Sequence (P00742 235-488 limits assumed): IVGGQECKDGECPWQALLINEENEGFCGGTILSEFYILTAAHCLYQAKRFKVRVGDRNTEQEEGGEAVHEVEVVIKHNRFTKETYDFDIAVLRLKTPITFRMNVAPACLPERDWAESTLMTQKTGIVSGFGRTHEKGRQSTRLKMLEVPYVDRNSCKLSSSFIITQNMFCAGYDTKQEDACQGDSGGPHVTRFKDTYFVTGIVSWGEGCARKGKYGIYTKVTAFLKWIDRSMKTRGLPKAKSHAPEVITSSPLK
This section presents compounds with their documented IC50 values.

{"columns": ["smiles_entry", "IC50"],
 "data": [
  ["CC(C)Nc1ccc(-c2cccc(N)c2)c(CC(=O)NCc2ccc(C(=N)N)cc2)c1F", "> 30 µM"],
  ["CC(C)Nc1nc(Cl)c(-c2cc(N)cc(C(=O)O)c2)n(CC(=O)NCc2ccc(C(=N)N)cc2)c1=O", "> 100 µM"]
]}
